Molecular target: human recombinant serotonin (5-Hydroxytryptamine) 5-HT6 receptor (Homo sapiens)
Construct: expressed in transfected cells; host or cells: human HeLa cells
Sequence (P50406 whole entry): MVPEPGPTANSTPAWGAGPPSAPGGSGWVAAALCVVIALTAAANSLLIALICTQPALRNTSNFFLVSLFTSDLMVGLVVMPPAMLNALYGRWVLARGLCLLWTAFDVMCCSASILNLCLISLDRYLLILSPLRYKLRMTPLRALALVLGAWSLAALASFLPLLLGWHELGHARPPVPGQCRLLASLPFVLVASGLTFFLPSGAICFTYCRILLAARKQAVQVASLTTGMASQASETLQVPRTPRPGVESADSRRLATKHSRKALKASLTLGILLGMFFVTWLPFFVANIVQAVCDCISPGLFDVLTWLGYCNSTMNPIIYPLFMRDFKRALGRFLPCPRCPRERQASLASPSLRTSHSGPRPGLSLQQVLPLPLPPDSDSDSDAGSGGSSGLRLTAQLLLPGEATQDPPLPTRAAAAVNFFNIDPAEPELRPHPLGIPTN
Assay: Serotonin 5-HT6 radioligand binding ([3H]LSD)
Conditions: compound at 0.1 μM; read-out: Inhibition of ligand binding, Serotonin 5-HT6 (percent inhibition of specific binding)
ENDPOINT NAME: inhibition at 0.1 µM (%)
Report as a plain number; the unit % is understood.

Sample answers from the record:
COMPOUND: CC(C)C(O)(Cn1c2c(c3cc(Cl)ccc31)CN(C)CC2)c1ccncc1 (stereo not drawn)
MEASUREMENT UNIT: %
inhibition at 0.1 µM: 3

COMPOUND: C/C(=C/n1c2c(c3cc(Cl)ccc31)CN(C)CC2)c1ccc(Cl)c(Cl)c1
MEASUREMENT UNIT: %
inhibition at 0.1 µM: 96

COMPOUND: C/C(=C\n1c2c(c3cc(C)ccc31)CN(C)CC2)c1ccccn1
MEASUREMENT UNIT: %
inhibition at 0.1 µM: 69

COMPOUND: CN1CCc2c(c3cc(Cl)ccc3n2/C=C(/c2ccc(F)cc2)C2CC2)C1
MEASUREMENT UNIT: %
inhibition at 0.1 µM: 102

COMPOUND: CC(=Cn1c2c(c3cc(Cl)ccc31)CN(C)CC2)c1ccc(Cl)cc1Cl (stereo in doubt)
MEASUREMENT UNIT: %
inhibition at 0.1 µM: 71

COMPOUND: CCN1CCc2c(c3cc(C)ccc3n2CC(O)c2ccc(C)cc2)C1 (racemic)
MEASUREMENT UNIT: %
inhibition at 0.1 µM: 29

Reported inhibition at 0.1 µM, compound CN1CCc2c(c3cc(Cl)ccc3n2CC(C)(O)c2ccncn2)C1 (stereo not drawn) : ____ 11

Reported inhibition at 0.1 µM, compound C/C(=C\n1c2c(c3cc(C(F)(F)F)ccc31)CN(C)CC2)c1ccc(F)cc1 : ____ 97

Reported inhibition at 0.1 µM, compound C/C(=C\n1c2c(c3cc(Cl)ccc31)CN(C)CC2)c1ccc(F)cc1 : ____ 96

Reported inhibition at 0.1 µM, compound C/C(=C\n1c2c(c3cc(Cl)ccc31)CN(C)C(C)C2)c1ccc(F)cc1 (stereo not drawn) : ____ 99

Reported inhibition at 0.1 µM, compound CN1CCc2c(c3cc(Cl)ccc3n2CC(O)(c2ccc(F)cc2)C2CC2)C1 (stereo not drawn) : ____ 90

Reported inhibition at 0.1 µM, compound C/C(=C\n1c2c(c3cc(C)ccc31)CN(C)C(C)C2)c1ccc(C)nc1 (stereo not drawn) : ____ 21

* * *

Molecular target: human dopamine D2L receptor (Homo sapiens, UniProt P14416)
Sequence (P14416 whole entry): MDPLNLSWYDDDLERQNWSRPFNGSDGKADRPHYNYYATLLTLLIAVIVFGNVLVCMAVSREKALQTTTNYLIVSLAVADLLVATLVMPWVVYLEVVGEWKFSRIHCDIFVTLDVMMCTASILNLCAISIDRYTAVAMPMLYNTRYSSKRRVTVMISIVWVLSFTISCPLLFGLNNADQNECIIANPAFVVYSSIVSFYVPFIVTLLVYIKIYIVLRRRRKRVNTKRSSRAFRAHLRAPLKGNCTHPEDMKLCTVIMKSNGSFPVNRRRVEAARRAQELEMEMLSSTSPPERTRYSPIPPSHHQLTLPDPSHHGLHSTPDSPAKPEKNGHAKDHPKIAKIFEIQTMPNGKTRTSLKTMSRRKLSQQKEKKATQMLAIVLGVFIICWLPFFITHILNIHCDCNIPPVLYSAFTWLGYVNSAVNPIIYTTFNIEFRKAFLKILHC
Assay: Dopamine D2L radioligand binding ([3H]Spiperone)
Conditions: percent inhibition of specific binding; compound at 1 μM; read-out: Inhibition of ligand binding, Dopamine D2L
Categorize each record by its inhibition at 1 µM using low: < 30%; moderate: ≥ 30% and < 90%; high: ≥ 90%

Place this compound in its band: CC/C(=C\n1c2c(c3cc(Cl)ccc31)CN(C)CC2)c1ccncc1 [Compound 284] moderate

Place this compound in its band: C/C(=C\n1c2c(c3cc(F)c(F)cc31)CN(C)CC2)c1ccc(C)nc1 [Compound 255] low

* * *

inhibition at 1 µM by entry:
Biological target: histamine receptor H1 (Homo sapiens, UniProt P35367)
Sequence (P35367 whole entry): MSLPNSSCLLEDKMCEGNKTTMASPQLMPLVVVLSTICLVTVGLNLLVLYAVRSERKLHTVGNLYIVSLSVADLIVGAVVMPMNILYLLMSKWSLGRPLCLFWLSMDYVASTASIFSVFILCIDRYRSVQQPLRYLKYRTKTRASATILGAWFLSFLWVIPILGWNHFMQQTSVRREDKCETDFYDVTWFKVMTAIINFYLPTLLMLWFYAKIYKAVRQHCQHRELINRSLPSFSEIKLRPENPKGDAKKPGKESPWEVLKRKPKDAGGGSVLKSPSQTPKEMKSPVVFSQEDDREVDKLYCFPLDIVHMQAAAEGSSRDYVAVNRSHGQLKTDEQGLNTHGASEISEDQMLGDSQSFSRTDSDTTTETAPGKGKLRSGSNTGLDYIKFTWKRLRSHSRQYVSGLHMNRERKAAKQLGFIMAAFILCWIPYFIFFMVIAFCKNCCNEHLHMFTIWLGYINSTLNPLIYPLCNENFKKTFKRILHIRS
Test: Histamine H1 radioligand binding ([3H]Pyrilamine)
Details: read-out: Histamine Binding (1 μM) H1, percent inhibition of specific binding, 1 μM
Quick note: number first, unit second.

COMPOUND: C/C(=C\n1c2c(c3cc(Cl)ccc31)CN(CCCC(O)c1ccc(F)cc1)CC2)c1ccncc1 (stereo not shown)
ENDPOINT NAME: inhibition at 1 µM
OBS VALUE: 102%

Reported inhibition at 1 µM, compound Cc1ccc2c(c1)c1c(n2/C=C(\F)c2ccc(Br)nc2)CCN(C)C1 : ____ 91%

Reported inhibition at 1 µM, compound CC(C)c1ccc2c3c(n(CC(C)(O)c4ccncc4)c2c1)CCN(C)C3 (stereo not shown) : ____ 7%

Reported inhibition at 1 µM, compound COc1ccc(/C(C)=C/n2c3c(c4cc(Cl)ccc42)CN(C)CC3)cc1F : ____ 39%

Reported inhibition at 1 µM, compound C/C(=C\n1c2c(c3cc(Cl)ccc31)CN(C)CC2)c1ccccc1 : ____ 84%

Reported inhibition at 1 µM, compound C/C(=C\n1c2c(c3cc(C)ccc31)CN(C)CC2)c1ccccn1 : ____ 24%

Reported inhibition at 1 µM, compound CN1CCc2c(c3cc(Cl)ccc3n2C#Cc2ccc(F)cc2)C1 : ____ 34%

Reported inhibition at 1 µM, compound Cc1ccc(/C=C/Cn2c3c(c4cc(Cl)ccc42)CN(C)CC3)cn1 : ____ 96%

Reported inhibition at 1 µM, compound C/C(=C\n1c2c(c3cc(C(C)(C)C)ccc31)CN(C)CC2)c1ccncc1 : ____ -16%

Reported inhibition at 1 µM, compound C/C(=C\n1c2c(c3cc(Cl)ccc31)CN(CCCC1(c3ccc(F)cc3)OCCO1)CC2)c1ccncc1 : ____ 95%

* * *

Biological target: human dopamine D2L receptor (Homo sapiens, UniProt P14416)
Experiment: Dopamine D2L radioligand binding ([3H]Spiperone)
Settings: compound at 1 μM; […] [3H]Spiperone; read-out: Inhibition of ligand binding, Dopamine D2L (percent inhibition of specific binding)
ENDPOINT NAME: inhibition at 1 µM

CHEM SMILES: Cc1ccc2c(c1)c1c(n2C#Cc2cscn2)CCN(C)C1
inhibition at 1 µM: 9%

What reported inhibition at 1 µM corresponds to CCC/C=C(/Cn1c2c(c3cc(Cl)ccc31)CN(C)CC2)c1ccc(F)cc1 on human dopamine D2L receptor (Homo sapiens, UniProt P14416)? 70%

What reported inhibition at 1 µM corresponds to C/C(=C\n1c2c(c3cc(C)ccc31)CN(C)CC2)c1ccc(C(=O)N(C)C)cc1 on human dopamine D2L receptor (Homo sapiens, UniProt P14416)? 69%

What reported inhibition at 1 µM corresponds to C/C(=C\n1c2c(c3cc(NC4CCC4)ccc31)CN(C)CC2)c1ccncc1 on human dopamine D2L receptor (Homo sapiens, UniProt P14416)? 79%

What reported inhibition at 1 µM corresponds to C/C(=C\n1c2c(c3cc(Cl)ccc31)CN(C(=O)OCc1ccccc1)CC2)c1ccncc1 on human dopamine D2L receptor (Homo sapiens, UniProt P14416)? 7%

What reported inhibition at 1 µM corresponds to CN1CCc2c(c3cc(Cl)ccc3n2C#Cc2ccc(F)cc2)C1 on human dopamine D2L receptor (Homo sapiens, UniProt P14416)? 95%

* * *

Biological target: human recombinant adrenergic α2B receptor (Homo sapiens, UniProt P18089)
Construct: expressed in transfected cells; host or cells: Chinese hamster ovary (CHO-K1) cells
Sequence (P18089 whole entry): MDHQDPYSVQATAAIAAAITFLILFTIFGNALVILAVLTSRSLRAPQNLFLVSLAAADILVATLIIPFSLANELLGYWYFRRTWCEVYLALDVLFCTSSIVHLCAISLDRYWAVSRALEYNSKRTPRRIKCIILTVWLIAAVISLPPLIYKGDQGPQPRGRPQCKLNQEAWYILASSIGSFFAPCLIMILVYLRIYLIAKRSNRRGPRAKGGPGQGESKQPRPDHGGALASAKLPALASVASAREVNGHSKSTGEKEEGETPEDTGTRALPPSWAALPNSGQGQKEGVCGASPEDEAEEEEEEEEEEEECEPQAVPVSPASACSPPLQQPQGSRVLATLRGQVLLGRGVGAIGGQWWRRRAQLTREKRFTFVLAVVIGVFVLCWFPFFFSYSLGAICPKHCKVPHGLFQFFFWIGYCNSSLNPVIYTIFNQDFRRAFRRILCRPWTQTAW
Test: Adrenergic α2B radioligand binding ([3H]Rauwolscine)
Settings: compound at 1 μM; […] [3H]Rauwolscine; read-out: Inhibition of ligand binding, Adrenergic α2B (percent inhibition of specific binding)
inhibition at 1 µM by entry:
Report as a plain number; the unit % is understood.

Sample answers from the record:
CHEM SMILES: Cc1ccc2c(c1)c1c(n2C#Cc2ccc(C)nc2)CCN(C)C1
inhibition at 1 µM [%]: 87
//
CHEM SMILES: CCOC(=O)/C=C(/Cn1c2c(c3cc(C)ccc31)CN(C)CC2)c1ccc(F)cc1
inhibition at 1 µM [%]: 107
//
CHEM SMILES: COC(=O)c1ccc2c(c1)c1c(n2C#Cc2ccc(F)cc2)CCN(C)C1
inhibition at 1 µM [%]: 37

Reported inhibition at 1 µM, compound COc1ccc(C#Cn2c3c(c4cc(Cl)ccc42)CN(C)CC3)cc1F : ____ 107

Reported inhibition at 1 µM, compound CNC(=O)c1ccc2c(c1)c1c(n2C#Cc2ccc(F)cc2)CCN(C)C1 : ____ 14

* * *

Biological target: human dopamine D2L receptor (Homo sapiens, UniProt P14416)
Test: Dopamine D2L radioligand binding ([3H]Spiperone)
Details: compound at 1 μM; […] [3H]Spiperone; read-out: Inhibition of ligand binding, Dopamine D2L (percent inhibition of specific binding)
The threshold is inclusive: inhibition at 1 µM of exactly 50% counts as 1; values below receive 0.

As a guide, the following entries are already answered.
CHEM SMILES: CCCCNc1ccc2c(c1)c1c(n2/C=C(\C)c2ccncc2)CCN(C)C1
CLASS: 0
--
CHEM SMILES: CNC(=O)c1ccc(/C(F)=C/n2c3c(c4cc(C)ccc42)CN(C)CC3)cc1F
CLASS: 0
--
CHEM SMILES: CC(C)=C(Cn1c2c(c3cc(Cl)ccc31)CN(C)CC2)c1ccncc1
CLASS: 0

Does COCCCN1CCc2c(c3cc(C)ccc3n2/C=C(\C)c2ccncc2)C1 have a reported inhibition at 1 µM of at least 50%? 1

Does C/C(=C\n1c2c(c3cc(Cl)ccc31)CN(C)CC2)C1CCCCC1 have a reported inhibition at 1 µM of at least 50%? 0

Does COc1ccc(/C(C)=C/n2c3c(c4cc(C)ccc42)CN(C)CC3)cn1 have a reported inhibition at 1 µM of at least 50%? 1

Does CNC(=O)c1cccc(/C(C)=C/n2c3c(c4cc(C)ccc42)CN(C)CC3)c1 have a reported inhibition at 1 µM of at least 50%? 1

Does C/C(=C\n1c2c(c3cc(C)ccc31)CN(CCc1ccccc1)CC2)c1ccncc1 have a reported inhibition at 1 µM of at least 50%? 1

Does C/C(=C\n1c2c(c3cc(NC4CC4)ccc31)CN(C)CC2)c1ccncc1 have a reported inhibition at 1 µM of at least 50%? 1

Does C/C(=C\n1c2c(c3cc(C)ccc31)CN(C)CC2)c1cccc(C(=O)N(C)C)c1 have a reported inhibition at 1 µM of at least 50%? 1

The measured values listed here are drawn from patent US8906925B2.
